Tested on: T47D cells
Test: Cell viability (Cell Titer Glo 2.0) in T47D cells, 120 hours
Assay type: cell-based
Conditions: N-methylated analogs 1,2-/1,3-/1,4-NH2; relative to the 1,3-NH2 analog (=1)
hey, just use criterion met if measured IC50 (fold difference) T47D is less than 4 fold difference, otherwise criterion not met

Answered examples (5):
| smiles.repr | category.label |
| --- | --- |
| CC[C@H](C)[C@@H]([C@@H](CC(=O)N1CCC[C@H]1[C@H](OC)[C@@H](C)C(=O)N(C)CCc1ccccc1N)OC)N(C)C(=O)[C@@H](NC(=O)[C@H](C(C)C)N(C)C)C(C)C | criterion met |
| CC[C@H](C)[C@@H]([C@@H](CC(=O)N1CCC[C@H]1[C@H](OC)[C@@H](C)C(=O)N(C)CCc1ccc(N)cc1)OC)N(C)C(=O)[C@@H](NC(=O)[C@H](C)N(C)C)C(C)C | criterion not met |
| CC[C@H](C)[C@@H]([C@@H](CC(=O)N1CCC[C@H]1[C@H](OC)[C@@H](C)C(=O)N(C)CCc1cccc(N)c1)OC)N(C)C(=O)[C@@H](NC(=O)[C@H](C)N(C)C)C(C)C | criterion met |
| CC[C@H](C)[C@@H]([C@@H](CC(=O)N1CCC[C@H]1[C@H](OC)[C@@H](C)C(=O)N(C)CCc1ccccc1N)OC)N(C)C(=O)[C@@H](NC(=O)[C@H](C)N(C)C)C(C)C | criterion met |
| CC[C@H](C)[C@@H]([C@@H](CC(=O)N1CCC[C@H]1[C@H](OC)[C@@H](C)C(=O)N(C)CCc1cccc(N)c1)OC)N(C)C(=O)[C@@H](NC(=O)[C@H](C(C)C)N(C)C)C(C)C | criterion met |

Now let's try a different one.
Query: For CC[C@H](C)[C@@H]([C@@H](CC(=O)N1CCC[C@H]1[C@H](OC)[C@@H](C)C(=O)N(C)CCc1ccc(N)cc1)OC)N(C)C(=O)[C@@H](NC(=O)[C@H](C(C)C)N(C)C)C(C)C , is the recorded IC50 (fold difference) T47D below the cut-off of 4 fold difference?
Response: criterion met

----------
Test system: T47D cells
Assay: Cell viability (Cell Titer Glo 2.0) in T47D cells, 120 hours
Format: cell-based
Details: NCH3-amide compared to its NH-amide analog (=1)
Procedure: HCC1954 breast ductal carcinoma and T47D cells (ATCC, Manassas, VA, USA) were seeded into 384-well white-walled culture plates and allowed to adhere for 2-4 hours. […] Cell viability following treatment was determined by Cell Titer Glo 2.0 Assay (Promega, Madison, WI, USA) and normalized to non-treated controls. Dose-response relationships were analyzed using GraphPad Prism (La Jolla, CA, USA), and IC50 values were derived from non-linear regression analyses using a 4-parameter logistic equation.
For each entry below, report its IC50 (fold difference) T47D value.
Numbers only, in fold difference.

| smiles.repr | tgt | measurement.unit | IC50 (fold difference) T47D |
| --- | --- | --- | --- |
| CC[C@H](C)[C@@H]([C@@H](CC(=O)N1CCC[C@H]1[C@H](OC)[C@@H](C)C(=O)NCCc1ccc(N)cc1)OC)N(C)C(=O)[C@@H](NC(=O)[C@H](C(C)C)N(C)C)C(C)C | T47D cells | fold difference | 1 |

Look at each compound and report its IC50 (fold difference) T47D.
1. CC[C@H](C)[C@@H]([C@@H](CC(=O)N1CCC[C@H]1[C@H](OC)[C@@H](C)C(=O)N(C)CCc1ccccc1N)OC)N(C)C(=O)[C@@H](NC(=O)[C@H](C(C)C)N(C)C)C(C)C
2. CC[C@H](C)[C@@H]([C@@H](CC(=O)N1CCC[C@H]1[C@H](OC)[C@@H](C)C(=O)NCCc1ccccc1N)OC)N(C)C(=O)[C@@H](NC(=O)[C@H](C(C)C)N(C)C)C(C)C

Response:
1.8
1
